# Assay Method Text: blockers of Ca2+-induced mitochondrial swelling – biochemical, isolated mouse mitochondria, absorbance, primary screen (AID 602449);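 also: 0% = DMSO wells given calcium and 100% = 1 mM EGTA wells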
# Particulars: 30 min, at 10 µM, active compounds read high
Out of some 360,000 compounds screened, about 5,000 (1.4%) were called active. Shown is part of a subset that was picked to be rich in actives.
Exercise: for every item that follows, state its recorded inhibition.
Your answer should be a plain number; it is taken to be in %.

Reported inhibition of CCc1nccn1S(=O)(=O)c1cccc([N+](=O)[O-])c1 : 0.1

Reported inhibition of NC(=O)C1CCN(C(=O)c2ccc(C(F)(F)F)cc2)CC1 : -3.2

Reported inhibition of Cc1ccc(C(=O)N2CCN(C3CCCCC3)CC2)s1 : -0.6

Reported inhibition of CC(=O)Nc1ccc(NC(=O)COc2ccccc2C(=O)Nc2cccc(Cl)c2Cl)cc1 : 6.8

Reported inhibition of CC1(c2ccc3ccccc3c2)NC(=O)NC1=O (stereo unspecified) : 0.6

Reported inhibition of O=C(COC(=O)c1ccc[nH]c1=O)Nc1ccc2c(c1)OC(F)(F)O2 : 3

Reported inhibition of CCOC(=O)N1CCN(C(=O)C2CCN(c3ncnc4c3sc3cccc(F)c34)CC2)CC1 : 50

Reported inhibition of CCOC(=O)c1ccc[n+](CC(=O)Nc2ccccc2OC(F)F)c1 : -3.5

Reported inhibition of Cc1c(NC(=O)CCCOc2ccccc2)cccc1[N+](=O)[O-] : 0.1

Reported inhibition of Cc1cccc(NC(=S)NCCc2ccc(F)cc2)c1C : 0.7

Reported inhibition of Cc1c(NC(=S)NCc2ccc(F)cc2)cccc1[N+](=O)[O-] : 96.5

----------
# Assay Method Text: blockers of Ca2+-induced mitochondrial swelling – biochemical, isolated mouse mitochondria, absorbance, primary screen (AID 602449);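 also: 0% = DMSO wells given calcium and 100% = 1 mM EGTA wells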
# Particulars: 30 min, at 10 µM, active compounds read high
The campaign covered roughly 360,000 compounds. About 5,000 (1.4%) were called active. Only a selection was taken, and actives are over-represented in it overall.
Exercise: for every item that follows, state its recorded inhibition.
Your answer should be a plain number; it is taken to be in %.

Reported inhibition of O=C(Nc1nnc(CCN2CCCCC2)s1)c1cccc(Cl)c1 : -0.1

Reported inhibition of Cc1oc2cc([N+](=O)[O-])c(O)c([N+](=O)[O-])c2c1C(=O)c1ccc(Br)cc1 : 74.4

Reported inhibition of Nc1ncc(CN2CCCC(C(=O)Nc3ccc(-c4ccco4)cc3)C2)cn1 (stereo unspecified) : -0.6

Reported inhibition of O=C(Nc1nnc(SCc2ccccc2Cl)s1)c1cccc([N+](=O)[O-])c1 : 96.3

Reported inhibition of O=C(Nc1nnc(SCc2c(Cl)cccc2Cl)s1)C1CCCO1 (stereo unspecified) : -1.4

Reported inhibition of Cc1ccc(C(=O)c2ccc(N3CCN(C)CC3)c([N+](=O)[O-])c2)cc1 : 0.6

Reported inhibition of Cc1ccnc(NC(=O)CCC(=O)N(CC(=O)NCc2ccccc2)Cc2ccco2)c1 : -0.3

Reported inhibition of CN(C)C(CNC(=O)c1cccc(S(=O)(=O)Nc2ccc(Br)cc2)c1)c1ccco1 (stereo unspecified) : -0.5

Reported inhibition of COc1cc(OC)cc(/C(N)=N/O)c1 : 0.6

Reported inhibition of Cc1ccc(CC(=O)Nc2ccc(OC(F)F)c(Cl)c2)cc1C : 60

Reported inhibition of COc1ccc(Cc2nnc(SCC(=O)Nc3ccc(C)c(C)c3)o2)cc1OC : 0

These entries and their values trace back to PubChem BioAssay AID602449.
